Biological target: Prostaglandin G/H synthase 2 (Homo sapiens)
Sequence (P35354 whole entry): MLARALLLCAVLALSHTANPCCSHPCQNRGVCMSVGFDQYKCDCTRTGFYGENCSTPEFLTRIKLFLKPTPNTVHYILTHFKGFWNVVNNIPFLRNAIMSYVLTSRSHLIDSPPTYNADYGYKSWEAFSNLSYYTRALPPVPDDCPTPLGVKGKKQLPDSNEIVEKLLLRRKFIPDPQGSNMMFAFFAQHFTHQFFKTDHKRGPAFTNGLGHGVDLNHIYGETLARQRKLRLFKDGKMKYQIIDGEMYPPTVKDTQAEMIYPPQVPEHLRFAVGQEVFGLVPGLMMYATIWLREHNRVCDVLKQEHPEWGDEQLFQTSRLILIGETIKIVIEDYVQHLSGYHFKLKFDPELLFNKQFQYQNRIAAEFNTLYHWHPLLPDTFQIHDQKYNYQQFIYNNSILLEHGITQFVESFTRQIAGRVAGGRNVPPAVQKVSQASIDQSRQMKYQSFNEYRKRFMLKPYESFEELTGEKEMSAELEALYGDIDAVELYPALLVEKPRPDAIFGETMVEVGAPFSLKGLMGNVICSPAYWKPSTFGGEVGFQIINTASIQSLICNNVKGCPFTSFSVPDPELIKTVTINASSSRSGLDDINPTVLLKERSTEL
pIC50: −log10 of the molar value.
Metric: pIC50

IN: Which value of pIC50 has been reported for COCc1nc2cnc3cc(-c4c(C)noc4C)c(OC[C@H]4CCNC4)cc3c2n1[C@H](C)c1ccccc1 [GSK778] in the records?
OUT: < 4.00
